Where these numbers come from: ChEMBL document CHEMBL4354873

Biological target: Toll-like receptor 8 (Homo sapiens, UniProt Q9NR97)
Sequence (Q9NR97 whole entry): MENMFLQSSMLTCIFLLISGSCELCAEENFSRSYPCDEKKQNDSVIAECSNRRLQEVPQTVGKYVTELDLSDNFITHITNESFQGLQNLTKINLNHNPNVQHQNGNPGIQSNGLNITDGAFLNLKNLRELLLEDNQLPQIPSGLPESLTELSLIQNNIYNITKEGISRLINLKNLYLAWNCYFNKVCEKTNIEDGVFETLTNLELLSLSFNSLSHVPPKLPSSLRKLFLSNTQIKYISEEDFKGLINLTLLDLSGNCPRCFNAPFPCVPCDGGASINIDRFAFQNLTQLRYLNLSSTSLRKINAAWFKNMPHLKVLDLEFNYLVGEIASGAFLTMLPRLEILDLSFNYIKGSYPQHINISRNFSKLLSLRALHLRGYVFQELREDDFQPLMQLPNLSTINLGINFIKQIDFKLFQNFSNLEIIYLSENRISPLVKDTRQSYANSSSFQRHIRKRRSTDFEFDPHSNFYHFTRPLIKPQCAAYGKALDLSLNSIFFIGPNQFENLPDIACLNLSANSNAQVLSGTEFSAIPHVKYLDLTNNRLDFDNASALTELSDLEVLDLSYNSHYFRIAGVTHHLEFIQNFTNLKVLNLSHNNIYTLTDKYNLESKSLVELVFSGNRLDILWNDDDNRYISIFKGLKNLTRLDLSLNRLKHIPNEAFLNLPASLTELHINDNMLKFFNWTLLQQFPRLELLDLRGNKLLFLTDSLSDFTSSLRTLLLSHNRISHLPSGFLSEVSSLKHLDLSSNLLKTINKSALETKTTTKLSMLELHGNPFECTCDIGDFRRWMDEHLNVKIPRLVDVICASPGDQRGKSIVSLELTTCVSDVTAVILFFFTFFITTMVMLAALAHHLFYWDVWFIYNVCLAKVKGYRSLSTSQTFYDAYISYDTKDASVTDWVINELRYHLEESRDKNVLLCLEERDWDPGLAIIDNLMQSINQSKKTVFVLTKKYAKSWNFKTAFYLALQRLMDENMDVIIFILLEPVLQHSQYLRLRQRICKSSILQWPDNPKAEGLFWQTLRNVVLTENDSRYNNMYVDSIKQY
Experiment: Inhibition of human TLR8 expressed in HEK-Blue cells assessed as inhibition of R848-induced NF-kappaB activation measured after 24 hrs by quanti-blue based SEAP reporter gene assay
Format: cell-based
observation type: IC50

> print(dat)
                           smiles.code   result
1  NC(=O)Sc1nnc(CCCO)n1-c1ccc(Cl)cc1Cl  > 20 µM
2             CSc1nnc(CCCO)n1-c1cccnc1  > 20 µM
3          CSc1nnc(O)n1-c1ccc(Cl)cc1Cl     9 µM

Prompt: Would you kindly share the measured IC50 for CSc1nnc(CCCO)n1C1CCCCC1 ?
Response: > 20 µM

Prompt: Would you kindly share the measured IC50 for CSc1nnc(CCCO)n1-c1cc(C)c(C)c(C)c1 ?
Response: 0.03 µM

Prompt: Would you kindly share the measured IC50 for NC(=O)CSc1nnc(CCCO)n1-c1ccc(Cl)cc1Cl ?
Response: > 20 µM

Prompt: Would you kindly share the measured IC50 for OCCCc1nnc(S)n1-c1ccc(Cl)cc1Cl ?
Response: > 20 µM
